assay: physchem; conditions: PBS, pH 7.4
readout_name: solubility at 2 h (µM)
Answer with a number only, understood to be in µM.

Look up and report measured solubility at 2 h for this entry: `O=C(Nc1cccnc1)c1cc(C(F)(F)F)nc(-n2ccnc2)n1` 48
